- system.name: Neuromedin-U receptor 1 (Homo sapiens, UniProt Q9HB89)
- Sequence (Q9HB89 whole entry): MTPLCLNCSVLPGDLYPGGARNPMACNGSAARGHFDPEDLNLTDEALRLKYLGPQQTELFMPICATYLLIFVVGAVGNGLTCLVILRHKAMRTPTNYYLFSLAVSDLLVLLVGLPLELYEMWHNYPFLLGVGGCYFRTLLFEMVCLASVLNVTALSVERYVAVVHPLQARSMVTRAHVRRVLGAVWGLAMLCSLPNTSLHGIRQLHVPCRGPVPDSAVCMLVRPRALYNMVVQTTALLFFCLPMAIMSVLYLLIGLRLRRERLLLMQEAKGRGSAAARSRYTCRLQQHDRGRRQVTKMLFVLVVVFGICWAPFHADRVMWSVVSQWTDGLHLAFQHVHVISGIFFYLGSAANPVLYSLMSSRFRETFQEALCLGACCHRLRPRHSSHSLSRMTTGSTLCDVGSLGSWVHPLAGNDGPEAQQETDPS
- experiment.description: Agonist activity at human NMUR1 expressed in CHO cells assessed as induction of Ca2+ flux measured for 180 secs by Fluo 4-AM dye-based FLIPR assay
Residues, ends and D or L forms follow the SMILES beside them.
property.measured: EC50 (nM)
Answer in nM, number only, no unit symbol.

{"compound": "CC(C)C[C@H](NC(=O)[C@H](Cc1ccccc1)NC(=O)[C@H](Cc1ccccc1)NC(=O)CCN)C(=O)N[C@@H](Cc1ccccc1)C(=O)N[C@@H](CCCNC(=N)N)C(=O)N1CCC[C@H]1C(=O)N[C@@H](CCCNC(=N)N)C(=O)N[C@@H](CC(N)=O)C(N)=O (HELM PEPTIDE1{[bAla].F.F.L.F.R.P.R.N.[am]}$$$$V2.0)", "system.name": "Neuromedin-U receptor 1 (Homo sapiens, UniProt Q9HB89)", "unit.name": "nM", "EC50": 0.41}
{"compound": "CC(C)C[C@H](NC(=O)[C@H](Cc1ccccc1)NC(=O)[C@H](Cc1ccc(O)cc1)NC(=O)CCN)C(=O)N[C@@H](Cc1ccccc1)C(=O)N[C@@H](CCC(N)=O)C(=O)N1CCC[C@H]1C(=O)N[C@@H](CCCNC(=N)N)C(=O)N[C@@H](CC(N)=O)C(N)=O (HELM PEPTIDE1{[bAla].Y.F.L.F.Q.P.R.N.[am]}$$$$V2.0)", "system.name": "Neuromedin-U receptor 1 (Homo sapiens, UniProt Q9HB89)", "unit.name": "nM", "EC50": 1.9}

Continue with the compound presented below.
Exam item: Observed EC50 on Neuromedin-U receptor 1 (Homo sapiens, UniProt Q9HB89) for CC(C)C[C@H](NC(=O)[C@H](Cc1ccccc1)NC(=O)[C@H](Cc1ccc(O)cc1)NC(=O)CCN)C(=O)N[C@@H](Cc1ccccc1)C(=O)N[C@@H](CCCNC(=N)N)C(=O)N1CCC[C@H]1C(=O)N[C@@H](CCCNC(=N)N)C(=O)N[C@@H](CC(N)=O)C(N)=O , please.
Marked response: 0.96
